tested-target: T1, recombinant cyno ENTPD2 extracellular domain (residues 29-462) with C-terminal Avi-His6 tag (cynomolgus macaque, UniProt Q9Y5L3 29-462 (human entry))
T1 construct: also called cynomologus (cyno) ENTPD2 ECD
T1 chain (part 1 of 2): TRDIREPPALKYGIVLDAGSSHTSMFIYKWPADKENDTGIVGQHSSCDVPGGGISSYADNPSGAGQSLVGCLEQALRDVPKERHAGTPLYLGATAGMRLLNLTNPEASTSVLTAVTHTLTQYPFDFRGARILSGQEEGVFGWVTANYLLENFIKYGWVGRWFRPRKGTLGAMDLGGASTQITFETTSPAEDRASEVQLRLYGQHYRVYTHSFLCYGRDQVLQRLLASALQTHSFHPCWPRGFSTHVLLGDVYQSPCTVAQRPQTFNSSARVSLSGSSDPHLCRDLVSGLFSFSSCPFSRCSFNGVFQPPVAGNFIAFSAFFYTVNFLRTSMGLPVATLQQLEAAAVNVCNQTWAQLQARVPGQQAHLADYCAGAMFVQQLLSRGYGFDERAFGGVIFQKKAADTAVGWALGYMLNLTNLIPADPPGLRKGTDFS
T1 chain (part 2 of 2): HHHHHH
method-summary: SPR Biacore, mAb captured, ECD analyte, 25C
metric: koff (s⁻¹)
Please respond with the number in s⁻¹ and leave the unit unwritten.

# count of solved cases: 5
binder	readout-value
ANTI-HUMAN ENTPD2 MAB5 (antibody, human IgG1, kappa, V domains shown, humanized and optimized from mAb16; human IgG1, kappa; also called Anti-ENTPD2 mAb5) VH: QIQLQESGPGLVKPSQTLSLTCTVSGYSITSGYYWNWIRQHPGKGLEWIGYISYDADNNYNPSLKNRVTISRDTSKNQFSLKLSSVTAADTAVYYCAGGYYRYGLGSYRGSYYYVMDYWGQGTTVTVSS VL: ETVLTQSPATLSVSPGERATISCKASQSVDYDGNSYMNWYQQKPGQAPRLLIYAASNLESGIPARFSGSGSGTDFTLTISSVEPEDAATYYCQQSNEDPPTFGGGTKLEIKR	0.003
ANTI-HUMAN ENTPD2 MAB10 (antibody, human IgG1, lambda, V domains shown, also called Anti-ENTPD2 mAb10) VH: QVQLVQSGAEVKKPGSSVKVSCKASGGTFDSYAVSWVRQAPGQGLEWMGRIVPWLGFTRYAQKFQGRVTITADESTSTAYMELSSLRSEDTAVYYCARESPGYRYSFDVWDQGTLVTVSS VL: SYELTQPLSVSVALGQTARITCSGDAIGEKYVYWYQQKPGQAPVLVIYDDNNRPSGIPERFSGSNSGNTATLTISRAQAGDEADYYCASYDLQQARWVFGGGTKLTVLG	0.018
ANTI-HUMAN ENTPD2 MAB3 (antibody, human IgG1, kappa, V domains shown, humanized from mAb17; human IgG1, kappa; also called Anti-ENTPD2 mAb3) VH: QVQLVQSGAEVVKPGASVKISCKASGYTFTDYNMDWVKQAPGQRLEWIGDINPKYDISTYNQQFKGKATITVDTSASTAYMELSSLRSEDTAVYYCARRGFFLYYGINYYYFDVWGQGTLVTVSS VL: EIVLTQSPATLSASPGERITLSCSASSSVSYIHWYQQKPGQAPRLLIYSTSNLASGIPARFSGSGSGTFYTLTISSVEPEDAAVYYCHQWSSYPWTFGGGTKLEIKR	0.00098
ANTI-HUMAN ENTPD2 MAB4 (antibody, human IgG1, kappa, V domains shown, humanized and optimized from mAb16; human IgG1, kappa; also called Anti-ENTPD2 mAb4) VH: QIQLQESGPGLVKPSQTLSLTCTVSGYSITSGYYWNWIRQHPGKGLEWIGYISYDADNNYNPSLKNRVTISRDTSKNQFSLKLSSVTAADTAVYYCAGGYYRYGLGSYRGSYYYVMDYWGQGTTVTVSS VL: ETVLTQSPATLSVSPGERATISCKASQSVDYEGHSYMNWYQQKPGQAPRLLIYAASNLESGIPARFSGSGSGTDFTLTISSVEPEDAATYYCQQSNEDPPTFGGGTKLEIKR	0.0057
ANTI-HUMAN ENTPD2 MAB6 (antibody, human IgG1, kappa, V domains shown, humanized and optimized from mAb16; human IgG1, kappa; also called Anti-ENTPD2 mAb6) VH: QVQLQESGPGLVKPSQTLSLTCTVSGYSITSGYYWNWIRQHPGKGLEWMGYISYDADNNYNPSLKNRITISRDTSKNQFSLKLSSVTAADTAVYYCAGGYYRYGLGSYSGSYYYVMDYWGQGTTVTVSS VL: DTQMTQSPSSLSVSVGDRATITCKASQSVDYEGHSYMNWYQQKPGKAPKLLIYAASNLESGVPSRFSGSGSGTDFTLTISSVQPEDFATYYCQQSNEDPPTFGGGTKLEIKR	0.01

We next turn to a different binder, shown below.
Exercise: Request the reported koff associated with ANTI-HUMAN ENTPD2 MAB9 (antibody, human IgG1, lambda, V domains shown, also called Anti-ENTPD2 mAb9) VH: QVQLVQSGAEVKKPGSSVKVSCKASGGTFDSYAVSWVRQAPGQGLEWMGRIVPWLGHTQYAQKFQGRVTITADESTSTAYMELSSLRSEDTAVYYCARESPGYRYSFDVWDQGTLVTVSS VL: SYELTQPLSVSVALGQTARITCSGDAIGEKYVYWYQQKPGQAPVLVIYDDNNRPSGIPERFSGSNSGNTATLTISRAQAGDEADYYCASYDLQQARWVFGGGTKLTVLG
Key: 0.021
